# measurementTarget: ASFV p30 (African swine fever virus, UniProt P34204 1-204)
# Sequence (P34204 whole entry): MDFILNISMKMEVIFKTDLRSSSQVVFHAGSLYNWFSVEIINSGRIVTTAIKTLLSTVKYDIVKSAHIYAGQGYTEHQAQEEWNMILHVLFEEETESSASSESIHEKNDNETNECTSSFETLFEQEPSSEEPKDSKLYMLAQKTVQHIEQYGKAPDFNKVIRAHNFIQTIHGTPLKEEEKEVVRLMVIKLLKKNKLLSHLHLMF
# procedureDetails: enzyme-linked aptamer adsorbed assay; […] (binding buffer not stated); […], room temperature, 30 min; […]
# conditionParameters: protein: commercial; label: 5'-biotin; hairpin (M-fold predicted)
quantityMeasured: pKd
Expect pKd as a plain number equal to -log10 of the molar concentration.

stdin: # query: pKd of entry Apt A4 (biotin) (ssDNA) DNA: ATTGGCACTCCACGCATAGGGTCGACGGTGCCGTCCGTGTTCACACTCCCATTTGGGTGGCCTATGCGTGCTACCGTGAA
stdout: 9.77
